- ASSAY INFO: TEAD-YAP interaction inhibition, primary screen, TEAD-YAP interaction inhibitor project, luminescence, HEK-TIYL cells (AID 1259422);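 note: 0% = median of test compound wells and 100% = reference inhibitor wells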
- TEST CONDITIONS: TEAD-Gal4/YAP UAS-luciferase luminescence, at 9.12 µM, active compounds read high
In all, about 640,000 compounds went through this assay and about 9,300 (1.5%) were called active. What follows is part of a selection rich in actives, with near analogues and random picks from the rest.
REPORTED ENDPOINT: inhibition

- COCCCNC(=O)Cn1cc(/C=C(\C#N)C(=O)NCc2ccco2)c2ccccc21: 3.94% (inactive)
- CC(Oc1cccc2cccnc12)C(=O)NNC(=S)NC(=O)c1cc2ccccc2oc1=O (stereo not drawn): 3.86% (inactive)
- COc1ccccc1NC(=O)C1=C(C)Nc2nc3ccccc3n2C1c1cccs1 (stereo not drawn): 46.5% (active)
- CCOc1ccc(C2C(C(=O)NC)=C(C)Nc3nc4ccccc4n32)cc1OC (stereo not drawn): -6.37% (inactive)
- COc1ccc(C[C@@H]2NC(=O)[C@@H]3C[C@H](NCc4cnn(-c5ccccc5F)c4)CN3C2=O)cc1: 10.7% (inactive)
- Cc1cc(Cl)c(S(=O)(=O)N2CCCc3ccccc32)cc1OCC(N)=O: 4.13% (inactive)
- CC(=O)Oc1cccc(N2C(=O)c3ccc(-c4nc5ccccc5o4)cc3C2=O)c1: -6.42% (inactive)
- Cc1ccc2[nH]c3c(c2c1)CCCC3NC=O (stereo not drawn): 5.42% (inactive)
- CCOC1=C/C(=C/c2c(N)n3nc(C(C)C)sc3nc2=O)C=CC1=O: 9.9% (inactive)
- c1ccc(-n2nnnc2SCc2nc3ccccc3s2)cc1: -47.7% (inactive)
- CCOc1cc2c(cc1OCC)C(c1cc(OC)ccc1OC)NCC2 (stereo not drawn): 6.48% (inactive)
- Cc1nn(C)c(C)c1NC(=O)c1c([N+](=O)[O-])cnn1C: 4.42% (inactive)
- Cc1nc(-c2cncc(-c3ccc(F)cc3)c2)cc(=O)[nH]1: 5.59% (inactive)

* * *

- ASSAY INFO: TEAD-YAP interaction inhibition, primary screen, TEAD-YAP interaction inhibitor project, luminescence, HEK-TIYL cells (AID 1259422);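 note: 0% = median of test compound wells and 100% = reference inhibitor wells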
- TEST CONDITIONS: TEAD-Gal4/YAP UAS-luciferase luminescence, at 9.12 µM, active compounds read high
The campaign covered roughly 640,000 compounds. About 9,300 (1.5%) were called active. The entries come from a sample that favours actives as a whole.
REPORTED ENDPOINT: inhibition (%)

• COc1ccc(C2CC(=O)NC3=C2C(=O)CC(c2ccccc2Cl)C3)cc1 (stereo not given) = 6.64
• CC(C)c1ccc(S(=O)(=O)N2CCN(C(=O)/C=C/c3ccccc3)CC2)cc1 = 5.06
• COc1cc(C2C(C(=O)OC3CCCCC3)=C(C)NC3=C2C(=O)CC(c2ccccc2)C3)cc(Cl)c1O (stereo not given) = -1.53
• Cc1cccnc1NC(=S)NC(=O)c1cc2ccccc2o1 = -26.1
• CCOc1ccccc1C1C(C(=O)OC)=C(C)NC2=C1C(=O)CC(c1ccccc1)C2 (stereo not given) = -5.16
• N#CC1=C(N)Oc2ccc3ncccc3c2C1c1ccccc1F (stereo not given) = 50.8
• CCOc1ccc(Cl)cc1S(N)(=O)=O = -4.54
• Cc1cc(NC(=O)c2ccccc2Br)ccc1O = 77
• C/C(=C\c1ccccc1)C(=O)Nc1ccccc1C(=O)O = 36.6
• Cc1c(Cl)cccc1NC(=O)NNC(=O)C(N)=O = 17

Taken from PubChem BioAssay AID1259422.
